Origin of measurements: ChEMBL document CHEMBL4513216

INHIBITION for assorted compounds
test system: Plasmodium berghei; assay: Screen against P. berghei liver stage (PbLuc), transformed with Luciferase, at 2uM; type: functional, HepG2; conditions: tested at 2 uM
Hit rate of the full screen: of about 68,000 compounds, about 2,700 (4%) showed an effect of 50% or more. Only a selection was taken, and strong results are over-represented in it overall.
Give the quantity in %, number only.

Some entries whose results are on file:
CC(C)C(=O)NCCCn1ncc2c(Cl)cccc21
-7.01
CC1CN(C(=O)CN(Cc2ccco2)Cc2cccs2)CCO1 (stereo not given)
26.78
O[C@H]1CCN(CC2CC2)[C@H]1Cc1ccncc1
55.7
CCCC1COCCN1Cc1ccc(NC(C)=O)cc1 (stereo not given)
48.17

Let's switch to this compound now.
IN: Check the records and state INHIBITION for CCCc1nnsc1C(=O)N1CCCC1(C)C(=O)N1CCOCC1 (stereo not given)
OUT: 5.76
